Values were extracted from patent US20250051338A1.

Target: TYK2 (Homo sapiens)
Sequence (P29597 whole entry): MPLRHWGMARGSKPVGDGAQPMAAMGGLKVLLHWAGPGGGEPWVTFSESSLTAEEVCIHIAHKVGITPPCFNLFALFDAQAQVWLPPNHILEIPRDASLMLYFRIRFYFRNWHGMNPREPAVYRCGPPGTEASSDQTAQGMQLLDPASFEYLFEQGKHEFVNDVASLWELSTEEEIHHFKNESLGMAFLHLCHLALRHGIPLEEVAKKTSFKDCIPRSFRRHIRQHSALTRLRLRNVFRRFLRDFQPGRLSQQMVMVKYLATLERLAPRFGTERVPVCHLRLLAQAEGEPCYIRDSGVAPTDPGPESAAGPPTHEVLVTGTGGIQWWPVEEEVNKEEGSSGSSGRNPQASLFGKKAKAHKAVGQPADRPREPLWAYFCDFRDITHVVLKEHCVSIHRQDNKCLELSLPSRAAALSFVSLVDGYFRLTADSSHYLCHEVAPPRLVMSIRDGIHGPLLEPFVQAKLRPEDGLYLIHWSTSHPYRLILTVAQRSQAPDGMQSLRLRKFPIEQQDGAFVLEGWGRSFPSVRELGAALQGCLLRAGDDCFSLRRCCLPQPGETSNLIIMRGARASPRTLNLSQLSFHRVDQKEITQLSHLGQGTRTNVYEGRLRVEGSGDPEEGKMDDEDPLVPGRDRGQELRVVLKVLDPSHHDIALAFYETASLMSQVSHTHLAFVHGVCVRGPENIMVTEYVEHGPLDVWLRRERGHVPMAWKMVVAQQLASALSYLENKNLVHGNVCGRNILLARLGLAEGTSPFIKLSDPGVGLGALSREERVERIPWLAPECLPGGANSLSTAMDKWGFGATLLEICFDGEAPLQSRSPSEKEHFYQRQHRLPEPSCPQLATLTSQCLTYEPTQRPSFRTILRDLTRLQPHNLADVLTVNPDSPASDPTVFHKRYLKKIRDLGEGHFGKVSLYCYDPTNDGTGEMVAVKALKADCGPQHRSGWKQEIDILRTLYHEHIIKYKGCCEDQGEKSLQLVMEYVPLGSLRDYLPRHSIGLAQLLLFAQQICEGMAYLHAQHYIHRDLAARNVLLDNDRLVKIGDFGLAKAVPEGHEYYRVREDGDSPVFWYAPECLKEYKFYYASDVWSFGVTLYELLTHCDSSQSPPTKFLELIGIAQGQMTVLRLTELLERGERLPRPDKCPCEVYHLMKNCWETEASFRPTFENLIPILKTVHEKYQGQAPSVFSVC
Assay: TYK2 degradation MSD assay in OCI-LY10 cells
Assay type: cell-based
Set-up: endogenous in cells; host or cells: EBV-B cells
Details: 4 to 24 hours incubation, read-out: TYK2 MSD DC50 rating in OCI-LY10
Metric: DC50

| Compound | Target Or Test System | Recorded Result |
| --- | --- | --- |
| CNc1cc(Nc2cccn(-c3ccc(C(=O)N4CCC(CN5CCC(c6ccc7c(c6)n(C)c(=O)n7C6CCC(=O)NC6=O)CC5)CC4)cn3)c2=O)nn2c(C(=O)N[C@@H]3C[C@@H]3F)cnc12 (some centres unmarked) [Example K411] | TYK2 (Homo sapiens) | < 1 nM |
| CNC(=O)c1cnc(Nc2ccc(C(=O)NCCCCCCc3ccc4c(c3)n(C)c(=O)n4C3CCC(=O)NC3=O)cn2)cc1Nc1cccc(-c2ncc(F)cn2)c1OC (centres unmarked) | TYK2 (Homo sapiens) | > 100 nM |
| CNc1cc(Nc2cccc(CN3CCN(c4ccc5c(c4)n(C)c(=O)n5C4CCC(=O)NC4=O)CC3)c2)nn2c(C(=O)NC3CC3)cnc12 (centres unmarked) | TYK2 (Homo sapiens) | > 100 nM |
| CNc1cc(Nc2cccn(C3CCN(C(=O)COCCOCCOCCOCCc4ccc5c(c4)n(C)c(=O)n5C4CCC(=O)NC4=O)CC3)c2=O)nn2c(C(=O)N[C@@H]3C[C@@H]3F)cnc12 (some centres unmarked) | TYK2 (Homo sapiens) | > 100 nM |
| CNc1cc(Nc2cccn(C3CCN(C(=O)NCCCCc4cccc5c4n(C)c(=O)n5C4CCC(=O)NC4=O)CC3)c2=O)nn2c(C(=O)N[C@@H]3C[C@@H]3F)cnc12 (some centres unmarked) | TYK2 (Homo sapiens) | > 100 nM |

###

Molecular target: TYK2 (Homo sapiens)
Assay: TYK2 degradation MSD assay in human PBMC cells
Type: cell-based
Set-up: endogenous in cells; host or cells: human PBMC
Settings: 4 to 24 hours incubation, read-out: TYK2 MSD DC50 rating in human PBMC
# key: entry, value: DC50

| Molecule | DC50 |
| --- | --- |
| CNC(=O)c1cnc(Nc2cc(C(=O)NCCCCc3cccc4c3n(C)c(=O)n4C3CCC(=O)NC3=O)ccn2)cc1Nc1cccc(-c2ncc(F)cn2)c1OC (stereo not drawn) | 1 to 10 nM |
| CNC(=O)c1cnc(Nc2ccc(CN(C)CCCOC3CC(c4cccc5c4n(C)c(=O)n5C4CCC(=O)NC4=O)C3)cn2)cc1Nc1cccc(-c2ncc(F)cn2)c1OC (stereo not drawn) | > 100 nM |
| CNc1cc(Nc2cccc(CN3CCN(CCc4ccc5c(c4)n(C)c(=O)n5C4CCC(=O)NC4=O)CC3)c2)nn2c(C(=O)NC3CC3)cnc12 (stereo not drawn) [Example K612] | > 100 nM |
| CCNC(=O)c1cnc(Nc2cc(C(=O)NCCCCc3cccc4c3n(C)c(=O)n4C3CCC(=O)NC3=O)ccn2)cc1Nc1cccc(-c2ncc(F)cn2)c1OC (stereo not drawn) | 1 to 10 nM |
| CCNC(=O)c1cnc(Nc2ccc(C(=O)NCCCCc3cccc4c3n(C)c(=O)n4C3CCC(=O)NC3=O)cn2)cc1Nc1cccc(-c2ncc(F)cn2)c1OC (stereo not drawn) | 1 to 10 nM |
| CNc1cc(Nc2ccccc2C(=O)NCCCCc2ccc3c(c2)n(C)c(=O)n3C2CCC(=O)NC2=O)nn2c(C(=O)N[C@@H]3C[C@@H]3F)cnc12 (stereo partly drawn) | > 100 nM |
| CNC(=O)c1cnc(Nc2ccc(CN3CCN(c4ccc5c(c4)n(C)c(=O)n5C4CCC(=O)NC4=O)CC3)cn2)cc1Nc1cccc(-c2ncc(F)cn2)c1OC (stereo not drawn) | < 1 nM |
| CNc1cc(-c2ccc(C(=O)NCCCCCCCCc3cccc4c3n(C)c(=O)n4C3CCC(=O)NC3=O)cc2)nn2c(C(=O)N[C@@H]3C[C@@H]3F)cnc12 (stereo partly drawn) | > 100 nM |
| CNc1cc(-c2ccc(C(=O)NCCCCCCc3ccc4c(c3)n(C)c(=O)n4C3CCC(=O)NC3=O)cc2)nn2c(C(=O)N[C@@H]3C[C@@H]3F)cnc12 (stereo partly drawn) | > 100 nM |
| CNc1cc(Nc2cccc(CN3CCC([C@@H]4CCN(c5ccc6c(c5)n(C)c(=O)n6C5CCC(=O)NC5=O)C4)CC3)c2)nn2c(C(=O)NC3CC3)ncc12 (stereo partly drawn) | > 100 nM |
| CNC(=O)c1cnc(NC(=O)NCCCCCCCCCc2cccc3c2n(C)c(=O)n3C2CCC(=O)NC2=O)cc1Nc1cccc(-c2ncc(F)cn2)c1OC (stereo not drawn) | 1 to 10 nM |
| CNc1cc(-c2ccc(CN3CCN(c4ccc(-c5ccc6c(c5)n(C)c(=O)n6C5CCC(=O)NC5=O)cc4)CC3)cc2)nn2c(C(=O)N[C@@H]3C[C@@H]3F)cnc12 (stereo partly drawn) | > 100 nM |
| CNc1cc(Nc2cccc(-c3ccc(C(=O)N4CCN(C5CCC(c6ccc(-c7ccc8c(c7)n(C)c(=O)n8C7CCC(=O)NC7=O)cc6)CC5)CC4)cn3)c2OC)nn2c(C(=O)N[C@@H]3C[C@@H]3F)cnc12 (stereo partly drawn) | > 100 nM |
| Cn1c(=O)n(C2CCC(=O)NC2=O)c2ccc(C#CC3CCN(Cc4ccc(-c5cccc(Nc6ccc7ncc(C(=O)NC8CC8)n7n6)c5)nc4)CC3)cc21 (stereo not drawn) | > 100 nM |
| CNc1cc(-c2cnn(C3CN(C(=O)NCCCCc4cccc5c4n(C)c(=O)n5C4CCC(=O)NC4=O)C3)c2)nn2c(C(=O)N[C@@H]3C[C@@H]3F)cnc12 (stereo partly drawn) | > 100 nM |
| CNc1cc(Nc2cccc(-c3ccc(CN4CCN(c5ccc(-c6cccc7c6n(C)c(=O)n7C6CCC(=O)NC6=O)cc5)CC4)cn3)c2)nn2c(C(=O)N[C@@H]3C[C@@H]3F)cnc12 (stereo partly drawn) | > 100 nM |
| Cn1c(=O)n(C2CCC(=O)NC2=O)c2ccc(N3CCN(C4CN(C5CCN(Cc6ccc(-c7cccc(Nc8ccc9ncc(C(=O)NC%10CC%10)n9n8)c7)nc6)CC5)C4)CC3)cc21 (stereo not drawn) | > 100 nM |
| CNc1cc(N2CCc3c(N4CCN(C5CC6(CCN(c7ccc8c(c7)n(C)c(=O)n8C7CCC(=O)NC7=O)CC6)C5)CC4)cccc32)nn2c(C(=O)N[C@@H]3C[C@@H]3F)cnc12 (stereo partly drawn) | > 100 nM |
| CNC(=O)c1cnc(Nc2ccc(C3CCN(Cc4cccc5c4n(C)c(=O)n5C4CCC(=O)NC4=O)CC3)cn2)cc1Nc1cccc(-c2ncc(F)cn2)c1OC (stereo not drawn) | > 100 nM |
| Cn1c(=O)n(C2CCC(=O)NC2=O)c2ccc(-c3ccc(N4CCN(Cc5ccc(-c6cccc(Nc7nn8c(C(=O)N[C@@H]9C[C@@H]9F)cnc8c8c7OCCN8)c6Cl)nc5)CC4)cc3)cc21 (stereo partly drawn) | > 100 nM |
| Cn1c(=O)n(C2CCC(=O)NC2=O)c2ccc(CCCCNc3cc(Nc4cccn(-c5ccccn5)c4=O)nn4c(C(=O)N[C@@H]5C[C@@H]5F)cnc34)cc21 (stereo partly drawn) | > 100 nM |
